Measured CPE inhibition accompanies every entry in the list below.
experiment: inhibition of RSV-induced cytopathic effect – HEp-2 cells, primary 10 µM value included (AID 2391); conditions: at 10 µM, stronger effect = higher value
Screen size: about 310,000 compounds; about 410 (0.13%) were called active. Not shown: some 2% with an inconclusive outcome. A selection follows. Measured potencies and affinities stand elsewhere.
MEASUREMENT_TYPE: CPE inhibition (%)

| SMILES_NOTATION | MEASUREMENT_TYPE | READOUT_UNITS | MEASURED_NUMBER |
| --- | --- | --- | --- |
| Cc1cc2nc3n(c2cc1C)CCCN3 | CPE inhibition | % | 5.29 |
| C[N+](C)(C)CC/C=C1/c2ccccc2CSc2ccccc21 | CPE inhibition | % | -0.47 |
| COc1ccc(OCC(=O)Nc2nc3c(s2)CCCC3)cc1 | CPE inhibition | % | 6.78 |
| CCCCNCc1cc(Br)c(OCC(=O)N2CCOCC2)c(OC)c1 | CPE inhibition | % | 0.24 |
| COC(=O)C1=C(C)N(Cc2ccco2)C(=O)N[C@@H]1c1ccccc1 | CPE inhibition | % | 2.19 |
| O=C(Nc1nc2c(s1)CCCC2)c1cccc(S(=O)(=O)N2CCCc3ccccc32)c1 | CPE inhibition | % | 7.22 |

----------
assay: inhibition of RSV-induced cytopathic effect – HEp-2 cells, primary 10 µM value included (AID 2391); conditions: at 10 µM, stronger effect = higher value
Hit rate of the full screen: of about 310,000 compounds, about 410 (0.13%) were called active. Another 2% or so got no clear call; they are omitted. Only a sample is shown. Measured potencies and affinities stand elsewhere.

| COMPOUND | CPE inhibition [%] |
| --- | --- |
| Cc1oc(-c2ccccc2Cl)nc1CSCC(=O)O | 2.04 |
| CCn1ncc(CNC(=O)C2(C)CC2(Cl)Cl)c1C (stereo unspecified) | 2.51 |
| NS(=O)(=O)c1ccc(CNS(=O)(=O)c2ccc3c(c2)OCCO3)cc1 | 2.01 |
| O=C(c1ccccc1Br)N1N=C(c2ccccc2)CC1c1ccccc1F (stereo unspecified) | 13.7 |
| CC(OC(=O)c1cccn1C)C(=O)Nc1ccc2c(c1)OCO2 (stereo unspecified) | 2.62 |
| O=C(Nc1ccc(Cn2cccn2)cc1)c1ccc(COc2cccc(Br)c2)cc1 | -0.58 |
| CN(C)c1ccc(NC(=O)CSc2nc(C3CC3)nc3ccccc23)cc1 | 3.13 |
| CCC(=O)c1ccc(OCC(=O)N(C)CC(=O)Nc2cccc(F)c2)cc1 | -0.9 |
| CN(C)c1ccc(NC(=O)/C=C/c2ccccc2Cl)cc1 | 4.05 |
| Cc1ccc(S(=O)(=O)N2CCN(c3ccc([N+](=O)[O-])c(Sc4nncn4C)c3)CC2)cc1 | 2 |
| Cn1cnnc1Sc1cc(N2CCN(S(=O)(=O)c3ccccc3)CC2)ccc1[N+](=O)[O-] | 2.72 |

----------
In this section, each of the molecules is paired with its reported CPE inhibition.
assay: inhibition of RSV-induced cytopathic effect – HEp-2 cells, primary 10 µM value included (AID 2391); conditions: at 10 µM, stronger effect = higher value
Screen size: about 310,000 compounds; about 410 (0.13%) were called active. Roughly 2% stayed inconclusive and do not appear here. The list is a sample of the results. Potency and affinity values are given separately.
MEASUREMENT_TYPE: CPE inhibition (%)

| MOLECULE | MEASUREMENT_TYPE | MEASURED_NUMBER |
| --- | --- | --- |
| COC(=O)CSc1nc2ccc(NC(=O)CSc3nnnn3Cc3ccccc3)cc2s1 | CPE inhibition | 1.43 |
| COc1ccc(/C=N/N=C2/NC(=O)C(CC(=O)O)S2)cc1OCc1ccc(Cl)cc1Cl (stereo not drawn) | CPE inhibition | 1.42 |
| CCOC(=O)CC(NC(=O)C(CC)c1ccccc1)c1ccccc1Cl (stereo not drawn) | CPE inhibition | 3.39 |
| COc1ccc(C(C[N+](=O)[O-])c2c(C)cc3ccccn23)c(OC)c1 (stereo not drawn) | CPE inhibition | 3.91 |
| Cc1ccc(NC2c3ncccc3C(=O)N2Cc2cccs2)cc1C (stereo not drawn) | CPE inhibition | 13.8 |
| O=C(O)CSc1nnc(Cn2c(=O)sc3ccccc32)n1-c1cccc(Cl)c1 | CPE inhibition | 0.38 |
| NC(=O)CSc1nnc(Cn2c(=O)sc3ccccc32)n1-c1cccc(Cl)c1 | CPE inhibition | 2.54 |
| CSc1nc(N)c(NC(=O)c2ccc(Br)o2)c(=O)[nH]1 | CPE inhibition | 0.99 |
| COc1ccc(NC(=S)N2CCN(c3ccccc3)CC2)c(OC)c1 | CPE inhibition | 3.36 |
| Cc1ccc2[nH]c3c(=O)[nH]ncc3c2c1 | CPE inhibition | -1.42 |
| COc1ccc(CN(C)CC(=O)Nc2ccccc2C(F)(F)F)c(OC)c1 | CPE inhibition | 0.3 |
| O=C(Nc1ccc(Nc2ccccc2)cc1)C1CC1 | CPE inhibition | 0.83 |
| Cc1nc2cc(NC(=O)N(C)c3ccc4ccccc4c3)ccc2o1 | CPE inhibition | 12.7 |
| O=C(Nc1ccccc1)c1ccc(NC(=O)C2CC2)cc1 | CPE inhibition | 2.88 |
| O=C1CCCCC1C(=O)c1cn(-c2ccc(Cl)c(Cl)c2)nn1 (stereo not drawn) | CPE inhibition | 1.71 |
| Cc1cc(C)c(C(=O)Nc2ccc(S(=O)(=O)Nc3onc(C)c3C)cc2)c(C)c1 | CPE inhibition | 0.27 |
| O=C1c2cccnc2C(Nc2ccc(F)c(Cl)c2)N1Cc1cccs1 (stereo not drawn) | CPE inhibition | 18 |
| Cc1ccc(NC2c3ncccc3C(=O)N2Cc2cccs2)cc1 (stereo not drawn) | CPE inhibition | 8.2 |
| COC(=O)Cn1c(=NC(=O)c2cccc(OC)c2)sc2cc(OC)ccc21 | CPE inhibition | 1.97 |
| CCn1c(=O)c2cc(C(=O)N(C)c3ccccc3F)sc2c2ccccc21 | CPE inhibition | 17.4 |
| O=C1c2cccnc2C(Nc2ccc(Cl)cc2)N1Cc1cccs1 (stereo not drawn) | CPE inhibition | 46.8 |
| COCc1[nH]nc2c1C1(C(=O)N(C)c3ccccc31)C(C#N)=C(N)O2 (stereo not drawn) | CPE inhibition | 2.9 |
| CCn1c(=O)c2cc(C(=O)N(C)c3ccc(OC)cc3OC)sc2c2ccccc21 | CPE inhibition | 13.1 |

----------
# maps each entry to its CPE inhibition
test: inhibition of RSV-induced cytopathic effect – HEp-2 cells, primary 10 µM value included (AID 2391); conditions: at 10 µM, stronger effect = higher value
The campaign covered roughly 310,000 compounds. About 410 (0.13%) were called active. About 2% were inconclusive and are not listed. The list is a sample of the results. Entries with a potency or affinity are not part of this list.
MEASUREMENT_TYPE: CPE inhibition

| COMPOUND | MEASUREMENT_TYPE | RESULT |
| --- | --- | --- |
| COc1ccc(C2NC(=O)NC(C)=C2C(C)=O)cc1 (stereo unspecified) | CPE inhibition | 2.63% (inactive) |
| COc1ccc(-c2cc(C(=O)O)c3ccccc3n2)c(OC)c1 | CPE inhibition | 0.21% (inactive) |
| O=C(O)c1cc(-c2cccs2)nc2ccc(F)cc12 | CPE inhibition | -0.75% (inactive) |
| Cc1c(NC(=O)CSCc2ccccc2)cccc1C(=O)O | CPE inhibition | -0.3% (inactive) |
| COc1ccc(-c2cc(C(=O)N3CCCC3)c3ccccc3n2)cc1 | CPE inhibition | 3% (inactive) |
| CCCCCCCN1C/C=C\C(c2ccc(OC)cc2)N(Cc2ccc(F)cc2)C(=O)[C@H]1Cc1ccccc1 (stereo partly specified) | CPE inhibition | 0.33% (inactive) |

----------
experiment: inhibition of RSV-induced cytopathic effect – HEp-2 cells, primary 10 µM value included (AID 2391); details: at 10 µM, stronger effect = higher value
The campaign covered roughly 310,000 compounds. About 410 (0.13%) were called active. Roughly 2% stayed inconclusive and do not appear here. These entries were drawn from the full list. Entries with a potency or affinity are not part of this list.
Collected CPE inhibition values appear next to each entry.
MEASUREMENT_TYPE: CPE inhibition (%)

| COMPOUND | MEASURED_NUMBER |
| --- | --- |
| CCc1ccccc1NC(=O)CNC(=O)c1cc(C2CC2)nn1-c1ccccc1 | -0.83 |
| CN(CC(=O)Nc1ccccc1Cl)C(=O)c1cc(C2CC2)nn1-c1ccccc1 | 1.34 |
| c1ccc(CSc2ncnc3ccccc23)cc1 | -0.1 |
| O=C(COc1ncnc2ccccc12)NCCc1ccccc1 | 4.07 |
| O=C(COc1ncnc2ccc(Br)cc12)NC1CCCC1 | -0.78 |
| COCCNC(=O)COc1ncnc2ccc(Br)cc12 | 0 |
| CCc1ccccc1NC(=O)CN(C)C(=O)c1cc(C2CC2)nn1-c1ccccc1 | 0.49 |
| CCN1CCN(c2ccc(S(=O)(=O)N3CCCCC3)cc2NC(=O)CC(C)c2ccccc2)CC1 (stereo unspecified) | -2.47 |
| Cc1ccccc1C(=O)NC(C)C(c1cccs1)N1CCOCC1 (stereo unspecified) | -0.28 |
| COc1ccc(N(CC(=O)NCc2ccc(Cl)cc2)S(=O)(=O)c2c(C)n[nH]c2C)cc1 | 2.71 |
| CCNC(=S)N1CCN(c2nc(-c3ccc(F)cc3)cs2)CC1 | 2.45 |
